- tested on: His-LAMA4 as used in Example 6 (species not stated) (Homo sapiens (Human)) (UniProt Q16363)
- assay details: ForteBio BLI, LAMA-His on anti-His sensor, antibody 33.3 nM
measured attribute: Kd (nM)
Answers are plain numbers, in nM.

Illustrative cases are given below, each with its answer.
binder="humanized 19C12 antibody H3L6 (antibody, V domains shown) VH: EVQLQQSGAELVKPGASVKVSCKASGYAFSTYWMNWVRQAPGQGLEWIGQIYPGDGDTNYNGKFKGRVTITADKSTSTAYMELSSLRSEDTAVYFCARSDGYYDYWGQGTTVTVSS VL: DIVLTQSPASLAVSLGERATISCRASESVDSYGTSFMHWYQQKPGQPPKLLISLASSLESGVPARFSGSGSGTDFTLTISPVEAEDAATYYCQQNNEDPPTFGAGTKLEIKR" measured_attribute=Kd measurement=0.113
binder="humanized 19C12 antibody H2L3 (antibody, V domains shown) VH: QVQLQQSGAELVKPGASVKVSCKASGYAFSTYWMNWVRQAPGQGLEWIGQIYPGDGDTNYNGKFKGRVTITADKSTSTAYMELSSLRSEDTAVYFCARSDGYYDYWGQGTTVTVSS VL: NIVLTQSPASLAVSLGERATISCRASESVDSYGTSFMHWYQQKPGQPPKLLICLASSLESGVPARFSGSGSRTDFTLTIDPVEAEDAATYYCQQNNEDPPTFGAGTKLEIKR" measured_attribute=Kd measurement=0.115
binder="humanized 19C12 antibody H2L6 (antibody, V domains shown) VH: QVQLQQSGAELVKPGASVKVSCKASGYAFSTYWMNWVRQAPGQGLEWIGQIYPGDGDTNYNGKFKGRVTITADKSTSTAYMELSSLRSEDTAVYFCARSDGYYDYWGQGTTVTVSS VL: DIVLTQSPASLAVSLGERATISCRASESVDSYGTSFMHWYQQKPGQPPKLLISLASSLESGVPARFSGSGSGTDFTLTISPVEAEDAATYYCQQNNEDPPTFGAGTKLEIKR" measured_attribute=Kd measurement=0.123
binder="humanized 19C12 antibody H2L4 (antibody, V domains shown) VH: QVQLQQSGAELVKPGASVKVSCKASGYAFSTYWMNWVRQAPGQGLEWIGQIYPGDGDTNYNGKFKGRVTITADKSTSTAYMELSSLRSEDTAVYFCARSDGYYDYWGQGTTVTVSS VL: NIVLTQSPASLAVSLGERATISCRASESVDSYGTSFMHWYQQKPGQPPKLLISLASSLESGVPARFSGSGSGTDFTLTISPVEAEDAATYYCQQNNEDPPTFGAGTKLEIKR" measured_attribute=Kd measurement=0.127

Could you now look at the following binder, please?
binder chimeric 19C12 antibody (antibody, V domains shown) VH: QVQLQQSGAELVKPGASVKISCKASGYAFSTYWMNWVKQRPGEGLEWIGQIYPGDGDTNYNGKFKGKATLTADKSSSTAYMQLSSLTSEDSAVYFCARSDGYYDYWGQGTTLTVSS VL: NIVLTQSPASLAVSLGQRATISCRASESVDSYGTSFMHWYQQKPGQPPKLLICLASSLESGVPARFSGSGSRTDFTLTIDPVEADDAATYYCQQNNEDPPTFGAGTKLELKR , Kd observed: 0.111
